protocol details: chemical genetic growth profiling, strain panel (AID 1159580);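 also: tested at 20 µM; growth read once vehicle control cultures reached saturation at 30 °C; 1 = growth at the plate median or of vehicle wells; lower values mean less growth of the strain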
condition label: S. cerevisiae deletion strains, growth OD, locus YCL069W, strain vba3
The whole screen tested about 5,500 compounds, of which about 2,000 (36%) were called active. Inconclusive results (about 18%) are left out. Rule as the data show it: active = normalized growth mostly below about 0.91 (no sharp cut-off); inconclusive = no clear call, values can overlap the other calls; inactive = mostly above about 0.92. The list shows a part of the results.
Outcomes: active, inactive

compound=c1ccc2c(Cc3c[nH]c4ccccc34)c[nH]c2c1 label=active
compound="CC(=O)O[C@H]1CC[C@]2(C)C3CC(=O)[C@]4(C)C(C(C)=O)=CCC4C3CC[C@H]2C1 (stereo not given in full)" label=inactive
compound=COc1ccc2c(c1)[C@]13CCCC[C@H]1[C@H](C2)N(C)CC3 label=inactive
compound="C#C[C@]1(O)CCC2C3CCC4=Cc5oncc5C[C@]4(C)C3CC[C@@]21C (stereo not given in full)" label=inactive
compound=CC1(C)S[C@@H]2[C@H](NC(=O)[C@H](C(=O)O)c3cccs3)C(=O)N2[C@H]1C(=O)O label=inactive

* * *

protocol details: chemical genetic growth profiling, strain panel (AID 1159580);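 also: tested at 20 µM; growth read once vehicle control cultures reached saturation at 30 °C; 1 = growth at the plate median or of vehicle wells; lower values mean less growth of the strain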
condition label: S. cerevisiae deletion strains, growth OD, locus YER111C, strain swi4, stronger effect = lower value
About 2,000 (36%) of roughly 5,500 compounds were called active. Not shown: some 18% with an inconclusive outcome. The list shows a part of the results.
Entries and their measured normalized growth follow.
metric: normalized growth

molecule=COC(=O)[C@]1(C)CC[C@]2(C)CC[C@]3(C)C4=CC=C5C(=CC(=O)C(O)=C5C)[C@]4(C)CC[C@@]3(C)[C@@H]2C1 measured_result=0.573
molecule=CN1CCN(CCCN2c3ccccc3Sc3ccc(C(F)(F)F)cc32)CC1 measured_result=0.36
molecule=Cc1cc(=O)n(-c2ccccc2)n1C measured_result=0.984
molecule=CNS(=O)(=O)Cc1ccc2[nH]cc(CCN(C)C)c2c1 measured_result=1.02
molecule="CC(=O)CC1CCCCN1 (configuration not stated)" measured_result=1.02
molecule=CCOc1ccc(C(=O)c2ccc(O)c(O)c2O)cc1 measured_result=0.72
molecule="CC(=O)Oc1cc2c(c(C)c1OC(C)=O)CC1OC13C2(C)CCC1(C)C2CC(C)(C(=O)O)CCC2(C)CCC13C (configuration not stated)" measured_result=1
molecule=COc1cc2cc3c4cc(OC)c(OC)cc4cc[n+]3c(C)c2cc1OC measured_result=1.03
molecule=COc1cc(O)cc(OC)c1OC measured_result=0.967
molecule=COc1ccc(C(=O)c2ccccc2)c(O)c1O measured_result=0.97
molecule="COc1cc2c(cc1OC)[C@@]13CCN4CC5=CCOC6CC(=O)N2C1[C@H]6[C@H]5C[C@H]43 (some centres not stated)" measured_result=0.971
molecule="CC(=O)OCC(=O)[C@@]12OC3(CCCC3)O[C@@H]1CC1C3CCC4=CC(=O)C=C[C@]4(C)[C@@]3(F)[C@@H](O)C[C@@]12C (some centres not stated)" measured_result=1.02

* * *

protocol details: chemical genetic growth profiling, strain panel (AID 1159580);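 also: tested at 20 µM; growth read once vehicle control cultures reached saturation at 30 °C; 1 = growth at the plate median or of vehicle wells; lower values mean less growth of the strain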
condition label: S. cerevisiae deletion strains, growth OD, locus YLR262C, strain YPT6 (second series), stronger effect = lower value
Among all 5,500 compounds or so, about 2,000 (36%) were called active. Not shown: some 18% with an inconclusive outcome. Some of the results follow. *1 amine or outer side, *2 acyl side, *3 side chain or, on linkers, in order; H or OH if unused. Where a SMILES comes first, the peptide text is derived from it. Bridges are numbered along the chain shown (N, C = ends). [ ]: non-standard residue; d: D form. The star is where a group is joined. ξ: configuration not given here. ΔAla(E,3-NHCONH2) = NC(=O)N/C=C(/N)C(=O)O; X2 = NC1=NCCC(C(N[*:1])C(=O)[*:2])N1; ξβ3hOrn = NCCCC(N)CC(=O)*; Dap = NC[CH](N)C(=O)O
Entries whose normalized growth is below 1 take Y; entries at or above 1 take N.

compound=O=C(O)[C@H](O)[C@@](O)(Cc1ccc(O)cc1)C(=O)O label=N
compound="CC1=CC2C(C(C)C)CCC(C)(O)C2CC1 (stereo not given)" label=Y
compound="COC(=O)C[C@H]1C(C)(C)[C@@H](O)[C@@H]2CC3=C4C=C(OC)O[C@@H](c5ccoc5)[C@]4(C)CCC3[C@@]1(C)C2=O (stereo not given in full)" label=Y
compound="CC(=O)CC1CCCCN1 (stereo not given)" label=N
compound="NCCCC(N)CC(=O)NCC1NC(=O)C(CO)NC(=O)C(N)CNC(=O)C(C2CCN=C(N)N2)NC(=O)/C(=C\\NC(N)=O)NC1=O (stereo not drawn) (H-[Dap]S[Dap](ξβ3hOrn)[ΔAla(E,3-NHCONH2)][X2]; lactam 1-C; configuration not given here)" label=N
compound=COc1ccc2c(=O)ccoc2c1 label=N
compound=COc1cc(-c2oc3cc(O)ccc3c(=O)c2O)ccc1O label=Y
compound=COc1ccc(-c2oc3ccccc3c(=O)c2O)cc1OC label=Y
compound=COc1ccc2c(c1)[C@]13CCCC[C@H]1[C@H](C2)N(C)CC3 label=Y
compound=CC1(C)C=Cc2cc3ccc(=O)oc3cc2O1 label=Y
compound=CC1=NN(c2ccccc2)C(=O)C1 label=Y
compound=CC(=O)NS(=O)(=O)c1ccc(NC(=O)c2ccccc2C(=O)O)cc1 label=N
compound="CC(=O)[C@@]1(O)CCC2C3CCC4=CC(=O)CC[C@]4(C)C3CC[C@@]21C (stereo not given in full)" label=Y
compound="OC(c1cc(C(F)(F)F)nc2c(C(F)(F)F)cccc12)C1CCCCN1 (stereo not given)" label=N
